subjectOfTest: human Farnesoid X receptor ligand-binding domain/Gal4 DNA binding domain chimera (Homo sapiens (Human), UniProt Q96RI1)
Sequence (Q96RI1 262-486, change not shown): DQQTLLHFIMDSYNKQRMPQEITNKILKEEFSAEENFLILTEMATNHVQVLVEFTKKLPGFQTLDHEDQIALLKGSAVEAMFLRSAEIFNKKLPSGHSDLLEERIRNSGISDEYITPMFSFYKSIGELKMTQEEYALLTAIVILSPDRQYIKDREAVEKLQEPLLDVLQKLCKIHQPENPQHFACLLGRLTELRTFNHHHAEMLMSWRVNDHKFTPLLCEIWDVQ
Sequence (P04386 1-147 partner): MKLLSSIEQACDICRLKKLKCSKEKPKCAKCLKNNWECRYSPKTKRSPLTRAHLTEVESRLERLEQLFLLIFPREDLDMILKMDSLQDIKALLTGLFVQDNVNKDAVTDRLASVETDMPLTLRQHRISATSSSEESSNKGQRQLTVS
testDetails: Cell-based assay of FXR activation (FXR-UAS-bla HEK 293T beta-lactamase reporter)
setupConditions: cellular FXR beta-lactamase reporter assay, FXR-UAS-bla HEK 293T cells, 16 h; pEC50 = -log EC50
recordedEndpoint: pEC50
For clarity, pEC50 is expressed as the negative log10 of concentration in mol/L.

Consider the worked cases shown below.
{"molecule": "CC(C)(C)c1cc(C(=O)O)cc2sc(N3C[C@@H]4C[C@H]3C[C@H]4OCc3c(-c4c(Cl)cccc4Cl)noc3C3CC3)nc12", "pEC50": 9.20}
{"molecule": "CCOc1cc(C(=O)O)cc2sc(N3C[C@@H]4C[C@H]3C[C@H]4OCc3c(-c4c(Cl)cccc4Cl)noc3C3CC3)nc12", "pEC50": 10.00}
{"molecule": "O=C(O)c1ccc(N2C[C@@H]3C[C@H]2C[C@H]3OCc2c(-c3c(Cl)cccc3Cl)noc2C2CC2)c(F)c1F", "pEC50": 9.00}
{"molecule": "O=C(O)c1cc(F)c2nc(N3C[C@H]4C[C@@H]3C[C@@H]4OCc3c(-c4c(Cl)cccc4Cl)noc3C3CC3)sc2c1", "pEC50": 7.30}
{"molecule": "CCCS(=O)(=O)NC(=O)c1cc(F)c2nc(N3C[C@@H]4C[C@H]3C[C@H]4OCc3c(-c4c(Cl)cccc4Cl)noc3C3CC3)sc2c1", "pEC50": 8.80}
{"molecule": "O=C(c1ccc(N2C[C@@H]3C[C@H]2C[C@H]3OCc2c(-c3c(Cl)cccc3Cl)noc2C2CC2)cc1)C(F)(F)F", "pEC50": 7.70}
{"molecule": "O=C(O)c1cc(F)c2nc(N3C[C@@H]4C[C@H]3C[C@H]4OCc3c(-c4c(Cl)cc(O)cc4Cl)noc3C3CC3)sc2c1", "pEC50": 7.20}
{"molecule": "O=C(NS(=O)(=O)C1CC1)c1ccc(N2C[C@@H]3C[C@H]2C[C@H]3OCc2c(-c3c(Cl)cccc3Cl)noc2C2(F)CC2)c(F)c1", "pEC50": 9.30}
{"molecule": "Cc1cccc(Cl)c1-c1noc(C2CC2)c1CO[C@@H]1C[C@@H]2C[C@H]1CN2c1nc2c([C@@H]3CCOC3)cc(C(=O)O)cc2s1", "pEC50": 9.40}
{"molecule": "Cc1cccc(Cl)c1-c1noc(C2CC2)c1CO[C@@H]1C[C@@H]2C[C@H]1CN2c1ccc(CCC(=O)NS(C)(=O)=O)cc1F", "pEC50": 8.00}

get_value(item= O=C(NS(=O)(=O)C1CCOC1)c1ccc(N2C(=O)[C@@H]3C[C@H]2C[C@H]3OCc2c(-c3c(Cl)cccc3Cl)noc2C2CC2)cc1F (stereo partly drawn) , readout=pEC50) returns 9.00

get_value(item= O=C(O)c1cc(OC(F)(F)F)c2nc(N3C[C@@H]4C[C@H]3C[C@H]4OCc3c(-c4c(Cl)cccc4Cl)noc3C3(F)CC3)sc2c1 , readout=pEC50) returns 9.40

The measurements presented in this section are drawn from patent US10793568B2.
